Source of measurements: patent US20100266614A1

- target: T1, RSV F protein (C-terminal truncated F protein secreted from a recombinant baculovirus) (respiratory syncytial virus (RSV), UniProt P03420 26-524)
- T1 construct: also called F antigen; RSV F antigen
- T1 sequence (P03420 26-109, chain 1 of 2): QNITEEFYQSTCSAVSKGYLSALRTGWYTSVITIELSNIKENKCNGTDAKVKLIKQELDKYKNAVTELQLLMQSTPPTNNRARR
- T1 sequence (P03420 137-524, chain 2 of 2): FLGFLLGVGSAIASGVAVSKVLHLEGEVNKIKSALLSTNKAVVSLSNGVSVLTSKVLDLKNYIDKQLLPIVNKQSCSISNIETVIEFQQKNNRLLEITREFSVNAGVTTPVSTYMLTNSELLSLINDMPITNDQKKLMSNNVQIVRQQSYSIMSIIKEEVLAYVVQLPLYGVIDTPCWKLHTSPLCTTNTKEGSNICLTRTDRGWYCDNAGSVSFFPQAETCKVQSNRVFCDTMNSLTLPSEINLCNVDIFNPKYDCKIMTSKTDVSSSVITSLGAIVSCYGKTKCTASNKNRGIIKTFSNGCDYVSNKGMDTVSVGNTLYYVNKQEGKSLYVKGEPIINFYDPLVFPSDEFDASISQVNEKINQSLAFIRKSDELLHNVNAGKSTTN
- experiment summary: SPR (BIAcore), F protein immobilized by EDC/NHS, Fab injected; kon and koff measured separately
Readings of kon for the listed binders
Write the answer as a number in M⁻¹ s⁻¹, unit excluded.

clone 23 (AFFY) (Fab, V domains shown) VH: QVTLRESGPALVKPTQTLTLTCTFSGFSLSTAGMSVGWIRQPPGKALEWLADIWWDDKKDYNPSLKSRLTISKDTSKNQVVLKVTNMDPADTATYYCARSMITNFYFDVWGQGTTVTVSS VL: DIQMTQSPSTLSASVGDRVTITCSASSSVGYMHWYQQKPGKAPKLLIYDTFKLASGVPSRFSGSGSGTEFTLTISSLQPDDFATYYCFQGSYYPFTFGGGTKVEIK	122000

kon measured on clone 1 (AFSF) (Fab, V domains shown) VH: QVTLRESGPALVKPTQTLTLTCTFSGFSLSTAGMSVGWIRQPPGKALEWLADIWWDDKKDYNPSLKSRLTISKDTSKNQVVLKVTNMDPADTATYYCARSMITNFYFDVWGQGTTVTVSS VL: DIQMTQSPSTLSASVGDRVTITCSASSSVGYMHWYQQKPGKAPKLLIYDTSKLASGVPSRFSGSGSGTEFTLTISSLQPDDFATYYCFQGSFYPFTFGGGTKVEIK = 113000
